Readings of kon for the listed binders
# target-or-system: recombinant human GITR (Cat No. 13643-H08H, Lot No. LC12JA2509, Sino Biological) (human) (UniProt Q9Y5U5)
# assay-remarks: SPR Biacore 8K, single-cycle kinetics, IgG in supernatant captured on Protein A, GITR as analyte
Use M⁻¹ s⁻¹ as the unit, but write only the number.

Illustrative cases are given below, each with its answer.
[
  {
    "binder": "anti-GITR 51B VH3/VL1 humanized antibody (human IgG1, kappa) (antibody, V domains shown) VH: QVQLVQSGAEVKKPGASVKVSCKTTGYRFTGYWIEWVRQPPGKGLEWIGEILPGSGATYYSENFKGKVTITADTSTDTAYMELSSLRSEDTAIYYCARKGGYYAMDYWGQGTLVTVSS VL: QIVLTQSPAIMSASLGERVTMSCTASSSVSSSYFHWYQQKPGSAPKLWIYSTSNLASGVPDRFSGSGSGTDYTLTVSSLQAEDVATYYCHLYHRSPRTFGGGTTVDIKR",
    "units-label": "M⁻¹ s⁻¹",
    "reading": 784000
  },
  {
    "binder": "anti-GITR 51B VH2/VL1 humanized antibody (human IgG1, kappa) (antibody, V domains shown) VH: QVQLVQSGAEVKKPGASVKLSCKTTGYRFTGYWIEWVRQPPGKGLEWIGEILPGSGATYYSENFKGKATITADTSTNTAYMEVSSLRSEDTAIYYCARKGGYYAMDYWGQGTLVTVSS VL: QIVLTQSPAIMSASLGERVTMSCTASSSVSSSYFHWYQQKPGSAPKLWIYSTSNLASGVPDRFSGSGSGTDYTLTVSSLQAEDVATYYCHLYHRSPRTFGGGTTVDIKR",
    "units-label": "M⁻¹ s⁻¹",
    "reading": 665000
  },
  {
    "binder": "anti-GITR 51B VH3/VL4 humanized antibody (human IgG1, kappa) (antibody, V domains shown, also called VH3/Vk4; 51B VH3/Vk4) VH: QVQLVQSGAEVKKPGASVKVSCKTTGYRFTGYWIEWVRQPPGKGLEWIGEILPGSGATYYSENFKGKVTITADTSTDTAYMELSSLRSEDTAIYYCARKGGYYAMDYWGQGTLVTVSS VL: EIVLTQSPATLSLSPGERATLSCTASSSVSSSYFHWYQQKPGKAPKLWIYSTSNLQSGVPDRFSGSGSGTDYTLTISSLQAEDVATYYCHLYHRSPRTFGGGTKVEIKR",
    "units-label": "M⁻¹ s⁻¹",
    "reading": 616000
  }
]

Could you share which kon value was measured for anti-GITR 51B VH4/VL5 humanized antibody (human IgG1, kappa) (antibody, V domains shown) VH: QVQLVQSGAEVKKPGASVKVSCKTTGYRFTGYWINWVRQPPGKGLEWIGEILPGSGATYYSENFKGKVTITADTSTDTAYMELSSLRSEDTAIYYCARKGGYYAMDYWGQGTLVTVSS VL: EIVLTQSPATLSLSPGERATLSCTASSSVSSSYFHWYQQKPGKAPKLWIYSTSNLESGVPDRFSGSGSGTDYTLTISSLQAEDVATYYCHLYHRSPRTFGGGTKVEIKR ?
474000

Item anti-GITR 51B VH4/VL4 humanized antibody (human IgG1, kappa) (antibody, V domains shown) VH: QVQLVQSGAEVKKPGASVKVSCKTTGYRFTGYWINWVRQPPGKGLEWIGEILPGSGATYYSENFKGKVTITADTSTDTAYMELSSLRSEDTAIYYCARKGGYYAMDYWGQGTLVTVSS VL: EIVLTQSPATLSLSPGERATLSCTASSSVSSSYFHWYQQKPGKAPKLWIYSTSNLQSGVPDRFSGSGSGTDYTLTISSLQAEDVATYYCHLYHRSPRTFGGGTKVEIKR has what recorded kon?
537000

Source: patent EP4339209A1
